target: T1, DFNB31_3, Q9P202
T1 sequence (Q9P202 811-907, limits assumed, looked up): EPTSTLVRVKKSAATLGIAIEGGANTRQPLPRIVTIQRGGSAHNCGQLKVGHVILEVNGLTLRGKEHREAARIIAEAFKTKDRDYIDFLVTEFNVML
assay_notes: holdup assay
Parameters: key: below the threshold = too weak to quantify, mostly under pKd 3.1 to 4
experimental_setup: plain residues with an end cap or a label only (N-terminal biotin on a linker: ado-ado)
test_readout: pKd

Consider the reported pKd for these binders:
binder	result
PEYLGLDVPV [ERBB2, P04626]	below the threshold
QGPVETESVV [SLC45A4, Q5BKX6]	below the threshold
LPAHHNATRL [SLC34A1, Q06495;Q06495-1]	below the threshold
YNNCLEILRV [DCAF7, P61962]	below the threshold
YRLAQESGLV [ABCC6, O95255]	3.94

Would you kindly share the measured pKd for EALLQMESVA [CAVIN3, Q969G5] ?
below the threshold

Next binder: QKNRKAQEDL [CES3, Q6UWW8]
4.05

How about HSGYRLNDYV [CLDN14, O95500] ?
below the threshold

One more binder: VRNLPESEEL [MYOZ3, Q8TDC0]
below the threshold

For VYPNAKVELV [PDLIM4_iso2, P50479;P50479-1] then?
below the threshold
